These data points were gathered from ChEMBL document CHEMBL3727356.

Exercise: state measured AC50 for each of the compounds provided.
- assaySystem: Pyruvate kinase PKLR (Homo sapiens)
- Sequence (P30613 whole entry): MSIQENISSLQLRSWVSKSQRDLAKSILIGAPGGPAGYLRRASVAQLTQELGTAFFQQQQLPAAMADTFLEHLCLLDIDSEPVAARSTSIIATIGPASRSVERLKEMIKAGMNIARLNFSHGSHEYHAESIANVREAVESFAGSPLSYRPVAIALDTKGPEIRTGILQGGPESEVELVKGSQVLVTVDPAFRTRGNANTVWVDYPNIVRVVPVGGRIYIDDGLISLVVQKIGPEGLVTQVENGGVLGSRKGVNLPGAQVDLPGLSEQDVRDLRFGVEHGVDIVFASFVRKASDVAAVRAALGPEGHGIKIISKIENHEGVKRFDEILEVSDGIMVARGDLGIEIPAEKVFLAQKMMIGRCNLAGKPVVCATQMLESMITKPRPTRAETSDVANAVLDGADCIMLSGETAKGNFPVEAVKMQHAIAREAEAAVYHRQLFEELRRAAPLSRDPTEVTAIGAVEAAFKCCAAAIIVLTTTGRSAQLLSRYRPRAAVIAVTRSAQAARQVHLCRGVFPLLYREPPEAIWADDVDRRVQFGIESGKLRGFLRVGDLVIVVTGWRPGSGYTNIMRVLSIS
- assayOverview: Activation of wild type PKR (unknown origin) incubated for 60 mins in presence of ADP, PEP and NADH by Spectraax microplate reader based assay

Incoming: # AC50 lookup, item CC1(O)CCC(C2(O)CCN(C(=O)c3ccc(NS(=O)(=O)c4cccc5scnc45)cc3)CC2)CC1 (centres undefined)
Outgoing: ≤ 1000 nM

Incoming: Proceed to CC(C)(C)CC1(O)CCN(C(=O)c2ccc(NS(=O)(=O)c3ccc(F)c4cccnc34)cc2)CC1
Outgoing: < 100 nM

Incoming: Proceed to O=C(c1ccc(NS(=O)(=O)c2cccc3cccnc23)cc1)N1CCC(O)(Cc2ccccn2)CC1
Outgoing: < 100 nM

Incoming: Proceed to CNc1nc2c(S(=O)(=O)Nc3ccc(C(=O)N4CCC(O)(CC(C)C)CC4)cc3)cc(Cl)cc2s1
Outgoing: < 100 nM
